test: Single intravenous dose pharmacokinetics study in rats (1 mg/kg IV; plasma levels of prodrug and of DMT or 5-MeO-DMT by LC-MS/MS); settings: male, Sprague-Dawley, rat, plasma, iv, 1 mg/kg, AUCinf (nM.hr), IV 1 mg/kg Plasma (t= 0 to Ihr)
recorded endpoint: AUC(0-inf)

input smiles	observed value
CN(C)CCc1c[nH]c2ccccc12	1.14 µM·h

###

experiment: Single intravenous dose pharmacokinetics study in rats (1 mg/kg IV; plasma levels of prodrug and of DMT or 5-MeO-DMT by LC-MS/MS); details: IV 1 mg/kg, plasma, analyte = dosed compound
API: label(entry) gives yes if the entry's AUC % Back Extrapolation to C0 is strictly smaller than 30%; on equality or larger values it gives no.

molecule	class label
COc1ccc2[nH]cc(CCN(C)C)c2c1 [Compound 5-MeO-DMT, 5-methoxy-N,N-dimethyltryptamine, reference compound]	yes
COc1ccc2c(c1)c(CCN(C)C)cn2P(=O)(OC(C)C)OC(C)C [Diisopropylphosphonate 5-MeO-DMT Prodrug]	yes
CC(C)OP(=O)(OC(C)C)n1cc(CCN(C)C)c2ccccc21 [Diisopropylphosphonate DMT Prodrug]	no
CCOC(=O)n1cc(CCN(C)C)c2ccccc21 [Compound 20]	yes
CN(C)CCc1c[nH]c2ccccc12 [DMT, N,N-dimethyltryptamine]	no
CCOC(=O)n1cc(CCN(C)C)c2cc(OC)ccc21 [Compound 19]	no

###

test: Single oral dose pharmacokinetics study in rats (10 mg/kg PO; plasma levels of prodrug and of metabolite DMT or 5-MeO-DMT by LC-MS/MS); settings: male, Sprague-Dawley, rat, plasma, po, 10 mg/kg, C0/Cmax (ng/mL), PO 10 mg/kg, analyte = dosed compound, mean/median
Label key: class 1 means Cmax under 10 ng/mL; class 0 means Cmax of 10 ng/mL or more.

molecule	class label
COc1ccc2[nH]cc(CCN(C)C)c2c1 [Compound 5-MeO-DMT, 5-methoxy-N,N-dimethyltryptamine, reference compound]	class 1
CCOC(=O)n1cc(CCN(C)C)c2cc(OC)ccc21	class 1
CN(C)CCc1c[nH]c2ccccc12	class 0
CC(C)OP(=O)(OC(C)C)n1cc(CCN(C)C)c2ccccc21 [Diisopropylphosphonate DMT Prodrug]	class 0
CCOC(=O)n1cc(CCN(C)C)c2ccccc21	class 0
COc1ccc2c(c1)c(CCN(C)C)cn2P(=O)(OC(C)C)OC(C)C [Diisopropylphosphonate 5-MeO-DMT Prodrug]	class 0

###

Recorded AUC % Extrapolation to infinity, one value per entry.
assay: Single intravenous dose pharmacokinetics study in rats (1 mg/kg IV; plasma levels of prodrug and of DMT or 5-MeO-DMT by LC-MS/MS); conditions: IV 1 mg/kg, plasma, analyte = dosed compound

compound	AUC % Extrapolation to infinity
COc1ccc2c(c1)c(CCN(C)C)cn2P(=O)(OC(C)C)OC(C)C [Diisopropylphosphonate 5-MeO-DMT Prodrug]	7.01%
CCOC(=O)n1cc(CCN(C)C)c2ccccc21	1.073%
CN(C)CCc1c[nH]c2ccccc12	0.690%
CC(C)OP(=O)(OC(C)C)n1cc(CCN(C)C)c2ccccc21 [Diisopropylphosphonate DMT Prodrug]	3.21%
COc1ccc2[nH]cc(CCN(C)C)c2c1 [Compound 5-MeO-DMT, 5-methoxy-N,N-dimethyltryptamine, reference compound]	0.204%
CCOC(=O)n1cc(CCN(C)C)c2cc(OC)ccc21	0.104%
